# target.under.test: UniProt:P50579
# test: MetAP2 enzyme assay, MetAP2 enzyme complexed with manganese ions
# settings: MetAP2 Mn pIC50, 10 μM MnCl2; -log(IC50), IC50 molar
pIC50: −log10 of the molar value.
measurement.name: pIC50

(a) Cc1nc(C(=O)N2CC(O)C2)ccc1-n1c2ccc(F)cc2c2[nH]ncc21 [Example 97]
(b) Cc1cc(N)ncc1-n1c2ccc(F)cc2c2[nH]ncc21 [Example 41]
Request: I'm curious, which of these has a smaller pIC50 number: a or b ? Kindly give the label for the entry you pick.
Result: b
(b: 7.90, a: 8.20)

(I) COCc1[nH]ncc1-n1c2ccc(F)cc2c2[nH]ncc21 [Example 65]
(II) Fc1cc2c3[nH]ncc3n(Cc3ccccc3)c2cc1F [Example 2]
Request: I'm curious, which of these has a smaller pIC50 number: I or II ? Kindly give the label for the entry you pick.
Result: II

(P) Cc1nc2c(cc1-n1c3ccc(F)cc3c3[nH]ncc31)[nH]c(=O)n2C[C@H](O)CO [Example 33]
(Q) O=C(c1ccc(Cn2c3ccc(F)cc3c3[nH]ncc32)cc1)N1CCOCC1 [Example 52]
Request: Recorded pIC50 values differ for P and Q ; which one is higher? Kindly give the label for the entry you pick.
Result: P
(P: 8.00, Q: 7.30)

###

# target.under.test: UniProt P50579
# test: MetAP2 enzyme assay, MetAP2 enzyme complexed with cobalt ions
# settings: MetAP2 Co pIC50, 10 μM CoCl2; -log(IC50), IC50 molar
measurement.name: IC50 (nM)

Observe how each entry below is paired with its result.
chem.smiles: Cc1nc(C(=O)NC[C@H](C)O)ccc1-n1c2ccc(F)cc2c2[nH]ncc21
measurement.name: IC50
units.symbol: nM
measured.number: 10
//
chem.smiles: Cc1nc2c(cc1-n1c3ccc(F)cc3c3[nH]ncc31)ncn2CCO
measurement.name: IC50
units.symbol: nM
measured.number: 7.94
//
chem.smiles: CCN1CCn2ncc(-n3c4ccc(F)cc4c4[nH]ncc43)c2C1
measurement.name: IC50
units.symbol: nM
measured.number: 12.6
//
chem.smiles: Cc1cc(N)ncc1-n1c2ccc(F)cc2c2[nH]ncc21
measurement.name: IC50
units.symbol: nM
measured.number: 12.6

(I) Cc1nc(N2CCNC(=O)C2)ncc1-n1c2ccc(F)cc2c2[nH]ncc21
(II) Cn1nccc1-n1c2ccc(F)cc2c2[nH]ncc21
Request: I'm curious, which of these has a smaller IC50 number: I or II ? Kindly give the label for the entry you pick.
Result: I
(I: 7.94 nM, II: 20 nM)

###

# target.under.test: human MetAP2 enzyme (Homo sapiens, UniProt P50579)
# Sequence (P50579 whole entry): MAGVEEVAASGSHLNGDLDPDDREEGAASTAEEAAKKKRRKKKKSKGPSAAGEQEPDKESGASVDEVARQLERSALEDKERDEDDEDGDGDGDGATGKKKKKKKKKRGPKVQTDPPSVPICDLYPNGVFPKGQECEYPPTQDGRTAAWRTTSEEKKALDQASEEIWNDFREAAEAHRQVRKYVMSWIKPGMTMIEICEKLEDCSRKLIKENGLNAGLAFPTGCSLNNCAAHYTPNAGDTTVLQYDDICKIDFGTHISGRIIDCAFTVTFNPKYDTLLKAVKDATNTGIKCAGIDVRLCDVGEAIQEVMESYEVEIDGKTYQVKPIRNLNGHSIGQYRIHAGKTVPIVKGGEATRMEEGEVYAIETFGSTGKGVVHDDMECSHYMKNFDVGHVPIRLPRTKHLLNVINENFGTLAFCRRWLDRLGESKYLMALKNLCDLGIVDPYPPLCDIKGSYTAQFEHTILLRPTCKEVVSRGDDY
# test: MetAP2 enzyme assay, MetAP2 enzyme complexed with cobalt ions
# settings: MetAP2 Co pIC50, 10 μM CoCl2; -log(IC50), IC50 molar
pIC50: −log10 of the molar value.
measurement.name: pIC50

Observe how each entry below is paired with its result.
compound: Cc1nc(N2CCC(O)CC2)ncc1-n1c2ccc(F)cc2c2[nH]ncc21 [Example 29]
pIC50: 8.20

compound: Cc1nc2[nH]cnc2cc1-n1c2cc(Cl)ccc2c2[nH]ncc21 [Example 128]
pIC50: 7.10

compound: Cc1nc(N2CC[C@@H](F)C2)ncc1-n1c2ccc(F)cc2c2[nH]ncc21 [Example 36]
pIC50: 7.40

compound: Cc1nc(N[C@H](C)CO)ncc1-n1c2ccc(F)cc2c2[nH]ncc21 [Example 75]
pIC50: 8.10

(A) Cc1nc2[nH]cnc2cc1-n1c2cc(Cl)c(F)cc2c2[nH]ncc21 [Example 129]
(B) Cc1nc(NCCO)ncc1-n1c2ccc(F)cc2c2[nH]ncc21 [Example 74]
Request: Recorded pIC50 values differ for A and B ; which one is higher? Kindly give the label for the entry you pick.
Result: B
